The entries below come with measured U251 CTG (IC50 M) values attached.
- Tested Target: T1, human B7H3 on cancer cell lines (human, UniProt Q5ZPR3 29-534)
- T1 sequence (looked up): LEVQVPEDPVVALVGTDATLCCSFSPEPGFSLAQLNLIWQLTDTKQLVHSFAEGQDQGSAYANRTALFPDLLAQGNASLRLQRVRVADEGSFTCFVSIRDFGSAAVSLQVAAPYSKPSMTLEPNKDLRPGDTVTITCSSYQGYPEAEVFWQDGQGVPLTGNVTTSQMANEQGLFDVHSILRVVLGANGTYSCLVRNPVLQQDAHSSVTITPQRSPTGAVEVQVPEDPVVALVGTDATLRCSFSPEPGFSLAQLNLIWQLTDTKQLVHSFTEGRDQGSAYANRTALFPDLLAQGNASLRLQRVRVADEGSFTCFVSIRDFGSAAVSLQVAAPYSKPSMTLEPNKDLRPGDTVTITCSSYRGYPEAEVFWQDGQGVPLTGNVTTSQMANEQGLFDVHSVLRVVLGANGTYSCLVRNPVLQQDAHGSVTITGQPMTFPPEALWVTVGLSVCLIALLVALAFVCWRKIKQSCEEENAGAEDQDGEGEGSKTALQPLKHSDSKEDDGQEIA
- Assay Method Text: cell-based or functional assay
Reply with just the number (in nM).

Example binders with recorded U251 CTG (IC50 M):
# Binder, U251 CTG (IC50 M) (nM)
rows = [
    ("ADC Example 297-6501 (antibody, human IgG1, lambda, V domains shown, drug-linker from Intermediate F297 on Cys, sites not stated) VH: EVQLLESGGGLVQPGGSLRLSCAASGFTFSSYGMHWVRQAPGKGLEWVSAISGSGGSTYYADSVKGRFTISRDNSKNTLYLQMNSLRAEDTAVYYCARGSNYLGMDVWGQGTLVTVSS VL: QSVLTQPPSASGTPGQRVTISCSGSSSNIGRNIVNWYQQLPGTAPKLLIYRSNQRPSGVPDRFSGSKSGTSASLAISGLRSEDEADYYCQTWGTGWVFGGGTKLTVLG", 0.704),
    ("ADC Example 208-6502 (antibody, human IgG1, lambda, V domains shown, drug-linker from Intermediate F104 on Cys, sites not stated) VH: EVQLLESGGGLVQPGGSLRLSCAASGFTFSTYGMHWVRQAPGKGLEWVSAISGSGGSTYYADSVKGRFTISRDNSKNTLYLQMNSLRAEDTAVYYCTRGYYYYGMDVWGQGTLVTVSS VL: QSVLTQPPSASGTPGQRVTISCSGGSSNIGSNPVNWYQQLPGTAPKLLIYGNSKRPSGVPDRFSGSKSGTSASLAISGLRSEDEADYYCQSYDSSLSGWVFGGGTKLTVLG", 0.933),
]

Need U251 CTG (IC50 M) of ADC Example 208-6515 (antibody, human IgG1, lambda, V domains shown, drug-linker from Intermediate F104 on Cys, sites not stated) VH: EVQLLESGGGLVQPGGSLRLSCAASGFTFSSYGMHWVRQVPGKGLEWVSAISGSGGTTYYADSVKGRFTISRDNSKNTLYLQMNSLRAEDTAVYYCARGGYHFLFDYWGQGTLVTVSS VL: QSVLTQPPSASGTPGQRVTISCSGSSSNIGSNTVNWYQQLPGTAPKLLIYRNDQRLLGVPDRFSGSKSGTSASLAISGLRSEDEADYYCQSYDSSLSGWVFGGGTKLTVLG , thanks.
0.41
